- Tested on: HepG2-ACTB-RAB5A
- assay-method-text: phenotypically active (imaging signature differs from DMSO and reproducible) at any of 0.3-9 uM (binary (1 = active, 0 = inactive)); higher = active
- measurement-conditions: treatment time: 24 h
Hello, when you answer, please use one of the following outcomes: T (active), F (inactive)

>  <compound>
Nc1cccc(-c2cc3c(Oc4cccc(O)c4)ncnc3[nH]2)c1

>  <class>
T

$$$$
>  <compound>
CC[C@H]1OC(=O)[C@H](C)[C@@H](O[C@H]2C[C@@](C)(OC)[C@@H](O)[C@H](C)O2)[C@H](C)[C@@H](O[C@@H]2O[C@H](C)C[C@H](N(C)C)[C@H]2O)[C@](C)(O)C[C@@H](C)C(=O)[C@H](C)[C@@H](O)[C@]1(C)O

>  <class>
F

$$$$
>  <compound>
CC(C)OC(=O)C(C)(C)Oc1ccc(C(=O)c2ccc(Cl)cc2)cc1 [Fenofibrate]

>  <class>
F

$$$$
>  <compound>
Cc1nc[nH]c1C1CCN(c2nc3cccc4c3n2CCC4=O)CC1

>  <class>
F

$$$$
>  <compound>
O=C1Cc2c([nH]c3ccc(Br)cc23)-c2ccccc2N1

>  <class>
T

$$$$

(Q) Fill in: this test's call for `O=C(O)COc1ccc(Br)cc1/C=C1\SC(=S)N(Cc2cccnc2)C1=O` is ___
(A) F

(Q) // param item: `CC(C)(Sc1ccc(CCN(CCCCC2CCCCC2)C(=O)NC2CCCCC2)cc1)C(=O)O` ; yields the recorded call
(A) F

(Q) Assay result, entry NS(=O)(=O)c1cc(Cl)c(Cl)c(S(N)(=O)=O)c1 [diclofenamide] — outcome?
(A) F

====

- System: HepG2-TUBA1B-RELA
- assay-method-text: lowest phenotypically active concentration; higher = less potent
- measurement-conditions: treatment time: 24 h
Reported values of lowest phenotypically active concentration for individual entries
Write the number in µM without appending the unit.

Previously resolved entries follow.
>  <compound>
CC1(C)CC(=O)C2=C(C1)NC(=S)NC2c1cccc(O)c1 (configuration not stated)

>  <result>
1

$$$$
>  <compound>
Nc1ncnc(Nc2ccc(OCc3ccccc3)c(Cl)c2)c1/C=N/OCCN1CCOCC1

>  <result>
9

$$$$
>  <compound>
CC(C)(C)c1ccc(C(O)CCCN2CCC(C(O)(c3ccccc3)c3ccccc3)CC2)cc1 (configuration not stated)

>  <result>
1

$$$$

Attention now turns to another entry.
(Q) Look up and state reported lowest phenotypically active concentration for `Cc1c(O)cccc1C(=O)N[C@@H](CSc1ccccc1)[C@H](O)CN1C[C@H]2CCCC[C@H]2C[C@H]1C(=O)NC(C)(C)C`
(A) 9

====

- System: WPMY1-TUBA1B-RELA
- assay-method-text: phenotypically active (imaging signature differs from DMSO and reproducible) at any of 0.3-9 uM (binary (1 = active, 0 = inactive)); higher = active
- measurement-conditions: treatment time: 24 h
quantity-kind: phenotypically active
No unit in the answer, only the number.

>  <molecule>
O=C1CCc2ccc(OCCCCN3CCN(c4cccc(Cl)c4Cl)CC3)cc2N1 [aripiprazole]

>  <phenotypically active>
0

$$$$
>  <molecule>
C[N+](C)(CCCCCC[N+](C)(C)CCCN1C(=O)c2ccccc2C1=O)CCCN1C(=O)c2ccccc2C1=O [W-84 dibromide]

>  <phenotypically active>
0

$$$$
>  <molecule>
O=C1CC(c2ccc(O)cc2)Oc2cc(O)cc(O)c21 (stereo not drawn) [Naringenine]

>  <phenotypically active>
0

$$$$
>  <molecule>
CCCOc1ccn2c(C(C)=O)cc(-c3ccccc3S(C)(=O)=O)c2c1

>  <phenotypically active>
0

$$$$
>  <molecule>
CCOC(=O)C(C)(C)Oc1ccc(Cl)cc1 [Clofibrate]

>  <phenotypically active>
0

$$$$
>  <molecule>
COc1cc([C@@H]2c3cc4c(cc3[C@@H](O[C@@H]3O[C@@H]5CO[C@@H](C)O[C@H]5[C@H](O)[C@H]3O)[C@H]3COC(=O)[C@H]23)OCO4)cc(OC)c1O [etoposide]

>  <phenotypically active>
1

$$$$
>  <molecule>
CC(C)(C)Nc1nc(Nc2ccc(C(N)=O)cc2)cc(N)c1C#N

>  <phenotypically active>
1

$$$$

Next item in the queue.
(Q) Please indicate recorded phenotypically active of NS(=O)(=O)c1cc(C2(O)NC(=O)c3ccccc32)ccc1Cl (stereo not drawn) [chlorthalidone] measured with WPMY1-TUBA1B-RELA.
(A) 0

====

- System: HepG2-ACTB-RAB5A
- assay-method-text: phenotypically active (imaging signature differs from DMSO and reproducible) at any of 0.3-9 uM (binary (1 = active, 0 = inactive)); higher = active
- measurement-conditions: treatment time: 24 h
Counter-ions that a name gives are not always drawn.
// allowed return values: active, inactive

Previously resolved entries follow.
>  <compound>
COC(=O)C1=CO[C@@H](C)[C@H]2CN3CCc4c([nH]c5ccccc45)[C@@H]3C[C@H]12 [Ajmalicine hydrochloride]

>  <subject-of-test>
HepG2-ACTB-RAB5A

>  <class>
active

$$$$
>  <compound>
O=C(CCCCCCC(=O)Nc1ccc([C@H]2O[C@@H](CSc3nc(-c4ccccc4)c(-c4ccccc4)o3)C[C@@H](c3ccc(CO)cc3)O2)cc1)NO

>  <subject-of-test>
HepG2-ACTB-RAB5A

>  <class>
inactive

$$$$
>  <compound>
Cc1ccc(NC(=O)c2ccc(CN3CCN(C)CC3)cc2)cc1Nc1nc(-c2cccnc2)cs1

>  <subject-of-test>
HepG2-ACTB-RAB5A

>  <class>
active

$$$$
>  <compound>
CCOC(=O)C(C)(C)Oc1ccc(Cl)cc1 [Clofibrate]

>  <subject-of-test>
HepG2-ACTB-RAB5A

>  <class>
inactive

$$$$

(Q) Fill in: this test's call for `CC(=O)OCC[N+](C)(C)C` is ___
(A) inactive

(Q) GET /call?item= `C#CCN(C)Cc1ccccc1` returns the recorded outcome of this test.
(A) inactive

(Q) Short answer needed: outcome of this test for Cc1cccc(C)c1OCC(C)N (centres undefined) ?
(A) active

(Q) Hi team, can someone confirm the assay call for O=C(O)[C@@H]1[C@H]2C[C@H]3c4[nH]c5ccccc5c4CCN3C[C@@H]2CC[C@@H]1O [Yohimbinic acid monohydrate] ?
(A) inactive

(Q) What outcome does the record of this test show for O=C(NC(CO)C(O)c1ccc([N+](=O)[O-])cc1)C(Cl)Cl (centres undefined) ?
(A) inactive

====

- Tested on: WPMY1-ACTB-RAB5A
- assay-method-text: phenotypically active (imaging signature differs from DMSO and reproducible) at any of 0.3-9 uM (binary (1 = active, 0 = inactive)); higher = active
- measurement-conditions: treatment time: 24 h
Your response should consist of one outcome taken from 1 (yes) (active), 0 (no) (inactive)

(Q) Test call for this compound, please: `NC1(C(=O)N[C@@H](CCO)c2ccc(Cl)cc2)CCN(c2ncnc3[nH]ccc23)CC1`
(A) 1 (yes)

====

- Tested on: A549-GM130-SQSTM1
- assay-method-text: phenotypically active (imaging signature differs from DMSO and reproducible) at any of 0.3-9 uM (binary (1 = active, 0 = inactive)); higher = active
- measurement-conditions: treatment time: 24 h
Counter-ions that a name gives are not always drawn.
// allowed return values: 1 for active, -1 for inactive

>  <molecule>
O=S(=O)(c1cccc2cnccc12)N1CCNCC1

>  <class>
-1

$$$$

(Q) Which outcome was entered for the molecule CN(C)CCCSc1ccccc1NC(=O)/C=C/c1ccccc1 [Cinanserin hydrochloride] in this test?
(A) -1

(Q) In this assay, the call recorded for `COc1cc(OC)c2c(=O)[nH]c(-c3cc(C)c(OCCO)c(C)c3)nc2c1` was what?
(A) 1

(Q) For this molecule, state the assay outcome: COc1cc2nc(N3CCN(C(=O)C4COc5ccccc5O4)CC3)nc(N)c2cc1OC (stereo unspecified)
(A) 1

(Q) Test call for this molecule, please: CCCCCCCCCCCCC/C=C/[C@H](O)[C@H](N)CO [D-erythro-Sphingosine (synthetic)]
(A) 1

(Q) Kindly provide the recorded test outcome for the following molecule: `O=S(=O)(NCCSSCCNS(=O)(=O)c1cc(Cl)ccc1Cl)c1cc(Cl)ccc1Cl`
(A) -1

(Q) What call does the record list for `CC(C)(C)c1nc(-c2cccc(NS(=O)(=O)c3c(F)cccc3F)c2F)c(-c2ccnc(N)n2)s1` ?
(A) 1

(Q) # outcome recorded in this test, key = CCCc1nn(C)c2c(=O)[nH]c(-c3cc(S(=O)(=O)N4CCN(C)CC4)ccc3OCC)nc12 [Sildenafil citrate]
(A) -1

(Q) Which outcome was assigned to `CC(C)(C)NC[C@H](O)COc1nsnc1N1CCOCC1` in this test?
(A) -1

(Q) Which outcome was entered for the molecule `N#Cc1ccc2ncnc(NCCc3ccccc3)c2c1` in this test?
(A) 1

(Q) Just curious, what result did `CC(Oc1ccc(O)cc1)(P(=O)(O)O)P(=O)(O)O` get here?
(A) -1

(Q) Answer briefly: the call reported for Oc1cccc(Nc2ccnc3cc(-c4cccc(CN5CCOCC5)c4)sc23)c1 [LCB 03-0110 dihydrochloride] in this assay.
(A) 1

(Q) Just curious, what result did `CC(=O)N1CCN(c2ccc(OC[C@H]3CO[C@](Cn4ccnc4)(c4ccc(Cl)cc4Cl)O3)cc2)CC1` get here?
(A) -1

(Q) How did this test come out for `CNCCCN1c2ccccc2CCc2ccccc21` ?
(A) 1

(Q) Please indicate how the test categorized `COc1ccc2c(c1)N(C(C)=O)[C@H]1[C@@H]3CO[C@H](C)[C@@H]4CN5CC[C@]21[C@@H]5C[C@H]34` .
(A) -1
